tested on: TMD8 cells (human diffuse large B-cell lymphoma cells); assay: Tumor cell proliferation inhibition, CCK-8; type: cell-based; settings: TMD8, read-out: inhibitory activity (IC50, nM) TMD8
observation_type: IC50

molecule="Nc1cccc2c1CN(C1CCC(=O)NC1=O)C2=O (stereo not shown) [lenalidomide, reference compound]" test_value="> 10000 nM"

---

human Cereblon WT GST-tagged protein (Homo sapiens (Human), UniProt Q96SW2) data, read-out IC50
Sequence (Q96SW2 whole entry): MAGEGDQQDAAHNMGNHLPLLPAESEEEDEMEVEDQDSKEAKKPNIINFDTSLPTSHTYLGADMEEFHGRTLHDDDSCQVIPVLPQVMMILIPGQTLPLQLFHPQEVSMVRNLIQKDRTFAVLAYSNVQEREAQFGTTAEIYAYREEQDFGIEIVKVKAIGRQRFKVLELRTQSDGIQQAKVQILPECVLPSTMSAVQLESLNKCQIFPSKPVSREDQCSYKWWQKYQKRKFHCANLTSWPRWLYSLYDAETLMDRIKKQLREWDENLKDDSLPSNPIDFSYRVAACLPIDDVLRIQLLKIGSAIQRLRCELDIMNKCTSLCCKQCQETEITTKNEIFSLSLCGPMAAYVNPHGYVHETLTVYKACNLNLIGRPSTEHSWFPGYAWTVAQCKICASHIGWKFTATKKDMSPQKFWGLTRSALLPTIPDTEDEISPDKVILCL
observation_type: IC50

molecule="O=C1CCC(N2Cc3cc(CN4CCN(C(c5ccccc5)c5ccccc5)CC4C(F)(F)F)ccc3C2=O)C(=O)N1 (stereo not shown)" measurement_target="human Cereblon WT GST-tagged protein (Homo sapiens (Human), UniProt Q96SW2)" test_value="500 to 1000 nM"
molecule="O=C1CCC(N2Cc3ccc(CN4CCN(C(c5ccc(Cl)cc5)c5ccc(Cl)cc5)CC4)cc3C2=O)C(=O)N1 (stereo not shown)" measurement_target="human Cereblon WT GST-tagged protein (Homo sapiens (Human), UniProt Q96SW2)" test_value="1000 to 1900 nM"
molecule="O=C1CCC(N2Cc3cc(C(=O)N4CCN(C(c5ccccc5)c5ccccc5)CC4)cc(F)c3C2=O)C(=O)N1 (stereo not shown)" measurement_target="human Cereblon WT GST-tagged protein (Homo sapiens (Human), UniProt Q96SW2)" test_value="1000 to 1900 nM"
molecule="O=C1CCC(N2Cc3cc(C(=O)N4C5CCC4CN(C(c4ccccc4)c4ccccc4)C5)cc(F)c3C2=O)C(=O)N1 (stereo not shown)" measurement_target="human Cereblon WT GST-tagged protein (Homo sapiens (Human), UniProt Q96SW2)" test_value="< 500 nM"

---

target: human Cereblon WT GST-tagged protein (Homo sapiens (Human))
Quick list: IC50 per entry.
observation_type: IC50

compound="O=C1CCC(N2Cc3cc(C(=O)N4CC5CCC(C4)N5C(c4ccccc4)c4ccccc4)ccc3C2=O)C(=O)N1 (stereo not shown)" observation_type=IC50 test_value="500 to 1000 nM"
compound="O=C1CCC(N2Cc3c(ccc(CN4CCC5(CCN(C(c6ccccc6)c6ccccc6)CC5)C4)c3F)C2=O)C(=O)N1 (stereo not shown)" observation_type=IC50 test_value="1000 to 1900 nM"
compound="C[C@@H]1CN(C(c2ccccc2)c2ccccc2)CCN1Cc1ccc2c(c1)CN(C1CCC(=O)NC1=O)C2=O (stereo partly shown)" observation_type=IC50 test_value="< 500 nM"
compound="O=C1CCC(N2Cc3c(ccc(CN4CCN(C(c5ccc(F)cc5)c5ccc(F)cc5)CC4)c3F)C2=O)C(=O)N1 (stereo not shown)" observation_type=IC50 test_value="< 500 nM"

---

Molecular target: IKZF3 (Homo sapiens (Human), UniProt Q96SW2+Q9UKT9)
Sequence (Q9UKT9 whole entry): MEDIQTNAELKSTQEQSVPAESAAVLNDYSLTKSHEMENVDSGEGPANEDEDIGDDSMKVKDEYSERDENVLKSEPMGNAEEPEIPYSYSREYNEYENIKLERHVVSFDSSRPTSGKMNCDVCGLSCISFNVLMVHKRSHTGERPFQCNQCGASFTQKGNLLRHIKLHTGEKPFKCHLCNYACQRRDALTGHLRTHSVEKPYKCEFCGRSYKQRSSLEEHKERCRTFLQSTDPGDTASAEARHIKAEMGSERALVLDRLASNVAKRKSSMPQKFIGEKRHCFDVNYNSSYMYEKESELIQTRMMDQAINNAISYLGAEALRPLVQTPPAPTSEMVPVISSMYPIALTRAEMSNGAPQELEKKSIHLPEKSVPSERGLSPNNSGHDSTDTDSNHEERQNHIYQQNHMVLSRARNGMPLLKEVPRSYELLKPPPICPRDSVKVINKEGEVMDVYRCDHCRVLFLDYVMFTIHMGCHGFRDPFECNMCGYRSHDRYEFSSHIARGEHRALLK
Sequence (Q96SW2 whole entry): as the sequence (Q96SW2 whole entry) above
Sequence (Q16531 whole entry partner): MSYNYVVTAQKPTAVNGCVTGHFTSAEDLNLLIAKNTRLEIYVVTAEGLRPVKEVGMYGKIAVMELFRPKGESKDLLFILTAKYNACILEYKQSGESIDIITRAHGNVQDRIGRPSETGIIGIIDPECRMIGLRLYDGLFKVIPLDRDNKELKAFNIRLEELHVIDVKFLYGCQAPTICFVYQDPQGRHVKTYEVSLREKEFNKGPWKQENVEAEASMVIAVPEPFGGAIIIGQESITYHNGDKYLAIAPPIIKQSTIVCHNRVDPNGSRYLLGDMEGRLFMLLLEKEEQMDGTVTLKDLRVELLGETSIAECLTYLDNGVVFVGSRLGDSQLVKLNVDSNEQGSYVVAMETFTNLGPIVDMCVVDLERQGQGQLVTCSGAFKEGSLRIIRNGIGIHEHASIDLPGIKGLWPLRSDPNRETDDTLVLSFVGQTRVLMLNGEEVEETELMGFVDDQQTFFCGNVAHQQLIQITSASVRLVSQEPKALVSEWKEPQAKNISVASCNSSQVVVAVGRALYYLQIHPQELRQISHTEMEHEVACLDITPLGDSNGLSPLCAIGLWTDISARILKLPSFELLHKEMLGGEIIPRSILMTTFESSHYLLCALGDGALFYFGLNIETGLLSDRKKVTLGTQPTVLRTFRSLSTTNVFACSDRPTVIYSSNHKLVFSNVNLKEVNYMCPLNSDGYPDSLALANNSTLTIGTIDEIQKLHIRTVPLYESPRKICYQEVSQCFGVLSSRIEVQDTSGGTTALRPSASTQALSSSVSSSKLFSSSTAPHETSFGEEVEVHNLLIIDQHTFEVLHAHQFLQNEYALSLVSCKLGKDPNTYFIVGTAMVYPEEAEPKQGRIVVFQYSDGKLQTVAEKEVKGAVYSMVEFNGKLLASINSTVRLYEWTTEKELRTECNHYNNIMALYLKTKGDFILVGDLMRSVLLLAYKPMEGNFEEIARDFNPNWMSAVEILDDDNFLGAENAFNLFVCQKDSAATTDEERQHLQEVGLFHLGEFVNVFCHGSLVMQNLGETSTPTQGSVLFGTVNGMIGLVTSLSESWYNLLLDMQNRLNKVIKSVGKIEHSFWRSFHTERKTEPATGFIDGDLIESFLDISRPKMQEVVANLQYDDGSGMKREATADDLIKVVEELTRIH
Assay: Western blot, substrate protein expression in hPBMC: IKZF3
Format: cell-based
Settings: hPBMCs
Description: The effect of the compounds of the present disclosure on the expression of target proteins in cells was detected using conventional Western blot analysis. Human peripheral blood mononuclear cells (hPBMCs) at a density of 1×10^6 cells/mL were thawed according to the PBMC Recovery Protocol (Milecell Biotechnologies Inc, Shanghai). […] The protein concentration of the supernatant was determined using the conventional BCA (Bicinchoninic Acid) assay. […]
observation_type: concentration at which IKZF3 protein was significantly degraded (Western blot, FIG. 1)

molecule="O=C1CCC(N2C(=O)c3ccc(CN4CCN(C(c5ccccc5)c5ccccc5)CC4)cc3C2=O)C(=O)N1 (stereo not drawn)" test_value="< 500 nM"
molecule="O=C1CCC(N2Cc3c(ccc(CN4CCC(N(c5ccccc5)c5ccccn5)CC4)c3F)C2=O)C(=O)N1 (stereo not drawn)" test_value="below 50 nM"
molecule="O=C1CCC(N2C(=O)c3ccc(CN4CCC(N(c5ccccc5)c5ccccn5)CC4)cc3C2=O)C(=O)N1 (stereo not drawn)" test_value="below 50 nM"
molecule="O=C1CCC(N2Cc3cc(CN4CCC(N(c5ccccc5)c5ccccn5)CC4)ccc3C2=O)C(=O)N1 (stereo not drawn)" test_value="below 50 nM"
molecule="O=C1CCC(N2Cc3cc(CCCN4CCN(C(c5ccccc5)c5ccccc5)CC4)ccc3C2=O)C(=O)N1 (stereo not drawn)" test_value="below 50 nM"
molecule="O=C1CCC(N2Cc3cc(CN4CCC(N(c5ccccc5)c5ccccn5)CC4)c(F)cc3C2=O)C(=O)N1 (stereo not drawn)" test_value="below 50 nM"

---

Quick list: pIC50 per entry.
biological target: UniProt:Q96SW2
pIC50: −log10 of the molar value.
observation_type: pIC50

compound="CC1CN(C(=O)c2cc(F)c3c(c2)CN(C2CCC(=O)NC2=O)C3=O)CC(C)N1C(c1ccccc1)c1ccccc1 (stereo not shown)" measurement_target=UniProt:Q96SW2 test_value="6.00 to 6.30"
compound="O=C1CCC(N2Cc3c(C(=O)N4CCN(C(c5cccc(F)c5)c5cccc(F)c5)CC4)cccc3C2=O)C(=O)N1 (stereo not shown)" measurement_target=UniProt:Q96SW2 test_value="> 6.30"
compound="O=C1CCC(N2Cc3c(ccc(C4=CCN(C(c5ccccc5)c5ccccc5)CC4)c3F)C2=O)C(=O)N1 (stereo not shown)" measurement_target=UniProt:Q96SW2 test_value="> 6.30"
compound="O=C1CCC(N2Cc3c(ccc(CN4C5CCC4CN(C(c4ccccc4)c4ccccc4)C5)c3F)C2=O)C(=O)N1 (stereo not shown)" measurement_target=UniProt:Q96SW2 test_value="6.00 to 6.30"
compound="O=C1CCC(N2Cc3cc(CN4C5CC4CN(C(c4ccccc4)c4ccccc4)C5)c(F)cc3C2=O)C(=O)N1 (stereo not shown)" measurement_target=UniProt:Q96SW2 test_value="6.00 to 6.30"
compound="O=C1CCC(N2Cc3cc(C(=O)N4CCC5(CCN(C(c6ccccc6)c6ccccc6)CC5)C4)ccc3C2=O)C(=O)N1 (stereo not shown)" measurement_target=UniProt:Q96SW2 test_value="6.00 to 6.30"
compound="O=C1CCC(N2Cc3cc(CC4CN(C(c5ccccc5)c5ccccc5)C4)ccc3C2=O)C(=O)N1 (stereo not shown)" measurement_target=UniProt:Q96SW2 test_value="> 6.30"

---

human Cereblon WT GST-tagged protein (Homo sapiens (Human), UniProt Q96SW2) data, read-out IC50
observation_type: IC50

compound="O=C1CCC(N2Cc3c(C(=O)N4CCN(C(c5ccc(F)cc5)c5ccc(F)cc5)CC4)cccc3C2=O)C(=O)N1 (stereo not drawn)" measurement_target="human Cereblon WT GST-tagged protein (Homo sapiens (Human), UniProt Q96SW2)" test_value="< 500 nM"
compound="O=C1CCC(N2Cc3cc(CN4CCC5(CCN(C(c6ccccc6)c6ccccc6)CC5)C4)c(F)cc3C2=O)C(=O)N1 (stereo not drawn)" measurement_target="human Cereblon WT GST-tagged protein (Homo sapiens (Human), UniProt Q96SW2)" test_value="1000 to 1900 nM"
compound="O=C1CCC(N2Cc3cc(C(=O)N4C5CC4CN(C(c4ccccc4)c4ccccc4)C5)cc(F)c3C2=O)C(=O)N1 (stereo not drawn)" measurement_target="human Cereblon WT GST-tagged protein (Homo sapiens (Human), UniProt Q96SW2)" test_value="< 500 nM"

---

target: UniProtKB Q96SW2; assay: CRBN-binding affinity, HTRF (CEREBLON BINDING kit, CISBIO); details: HTRF inhibitory activity
Quick list: IC50 per entry.
observation_type: IC50

compound="O=C1CCC(N2Cc3c(ccc(CN4CCN(C(c5ccccc5)c5ccncc5)CC4)c3F)C2=O)C(=O)N1 (stereo not shown)" measurement_target="UniProtKB Q96SW2" test_value="< 500 nM"
compound="O=C1CCC(N2Cc3cc(CN4CCN(C(c5ccccc5)c5ccccn5)CC4)ccc3C2=O)C(=O)N1 (stereo not shown)" measurement_target="UniProtKB Q96SW2" test_value="500 to 1000 nM"
compound="CC1(C)CN(Cc2ccc3c(c2F)CN(C2CCC(=O)NC2=O)C3=O)CCN1C(c1ccccc1)c1ccccc1 (stereo not shown)" measurement_target="UniProtKB Q96SW2" test_value="500 to 1000 nM"
compound="O=C1CCC(N2Cc3cc(C4CCN(C(c5ccccc5)c5ccccc5)CC4)cc(F)c3C2=O)C(=O)N1 (stereo not shown)" measurement_target="UniProtKB Q96SW2" test_value="< 500 nM"
compound="O=C1CCC(N2Cc3cc(C(=O)N4CCN(C(c5ccc(Cl)cc5)c5ccc(Cl)cc5)CC4)cc(F)c3C2=O)C(=O)N1 (stereo not shown)" measurement_target="UniProtKB Q96SW2" test_value="1000 to 1900 nM"
compound="CC1CN(Cc2ccc3c(c2)CN(C2CCC(=O)NC2=O)C3=O)CC(C)N1C(c1ccccc1)c1ccccc1 (stereo not shown)" measurement_target="UniProtKB Q96SW2" test_value="1000 to 1900 nM"
compound="O=C1CCC(N2Cc3c(ccc(CN4CCCN(C(c5ccccc5)c5ccccc5)CC4)c3F)C2=O)C(=O)N1 (stereo not shown)" measurement_target="UniProtKB Q96SW2" test_value="500 to 1000 nM"
